assay: yeast display, Sf9 membrane polyspecificity reagent, FACS + sequencing; frameworks hold sequencing errors
reported.metric: polyreactivity (PSR sort gate)

1. QVQLVESGGGLVQAGGSLRLSCAASGRTFWYYTMGWYRQAPGKERELVAAISSGGRTNYADSVKGRFTISRDNAKNTVYLQMNSLKPEDTAVYYCATSRYYKYVERDYWGQGTQVTVSS = high polyreactivity
2. QVQLVESGGGLVQAGGSLRLRCAASGFTFDLYAMGWYRQAPGKERELVAAISWSGGSTRYADSVKGRFTISRDNAKNTVYLQMNSLKPEDTAVYYCAKPVLVGLGSRYDYWGQGTQVTVSS = high polyreactivity
3. QVQLVESGGGLVQAGGSLRLSCAASGFIFYRYAKGWYRQPPGKERELVAAITKSGTSTYYADSVKGRFTISRDNAKNTVYLQMNSLKPEDTAVYYCNADVRSRSRGSSGYDYWGQGTQVTVSS = low polyreactivity
4. PDQLVESGGGLVQAGGSLRLSCAASGRIFGTNAMGWYRQAPGKERELVADITSGGSTNYADSVKGRFTISRDNAKNTVYLQMNSLKPEDTAVYYCAADVIGDLRWYRDEYWGQGTQVTVSS = low polyreactivity

====

experiment: yeast display, Sf9 membrane polyspecificity reagent, FACS + sequencing; frameworks hold sequencing errors
reported.metric: polyreactivity (PSR sort gate)

1) QVQLVESGGGLVQAGGSLRLSCAASGRTIYSNAMGWYRQPPGKERELVAAITGSSGSTYYADSVKGRFTISRDNAKNTVYLQMNSLKPEDTAVYYCAASCYCSLVRQLRLRGQGTQVTVSS = low polyreactivity
2) QGQLVESGGGLGQAGGSLRLSCAASGSTVVLYAMGWYRQARGKERELVAAISGGATTTYADSVKGRFTISRDNAKNTVYLQMNSLKPEDTAVYYCAADFSTFVLSGAAMDYWGQGTQVTVSS = low polyreactivity
3) QVQLVESGGGLVQAGGSLRLSCAASGSIFDQYAMGWYRPAPGKERELVAAIDTSGGSTYYADSVKGRFTISRDNAKNTVYLQMNSLKPEDTAVYYCNAGGDGDILTTEMDYWGPGTQVTVSS = low polyreactivity
4) QVQLVEAGGGLVQAGGSLRLSCAASGFTISSNAMGWYRQAPGKERELVAAISFNSTSTYYADSVKGRFTISRDNAKNSVYLQMNSLKPEDTAVYYCSADVPRVQSEPEYDYWGQGTQVTVSS = low polyreactivity
5) QVQLVESGGGLVQAGGSLRLSCDASGSIFPYNAMGWFRQAPGKEWELVAAISKRGGSTYYADSVKGRFTISRDNAKNTVYLQMNSLKPEDSAVYYCAARYPPYRSWYSYDSWGQGTQVTVSS = low polyreactivity
6) QVQLVESGGGLVQAGGSLRLSCAASGRTFTHNAMGWYRQAPGKERELVAGITSGGSTNYADSVKGRFTISRDNAKNTVYLQMNSLKPEDTAVYYCNKVFFWSRYKGYYYWGQGTQVTVSS = high polyreactivity
7) QVQLVESGGGLVQAGGSLRLSCAASGRTFNSNAMGWYRQAPGKERELVAAISGSGGSTYYADSVKGRFTISRDNAKNTVYLQMNSLKPEDTAVYYCAAAARQWKKYDYWGQGTQVTVSS = high polyreactivity
8) QVQLVESGGGLVQAGGSLRLSCAASGRIFSGYAMGWYRQAPGKERELVAAITWNGVSTYYADSVKGRFTISRDNAKNTVYLQMNSLKPEDTAVYYCNAEVYSDPYNDHDYWGQGTQVTVSS = low polyreactivity
9) QVQLVESGGGLVQAGGSLRLSCAASGRTLSYYAMGWYSQAPGKERELVAAITWNGGRTYYADSVKGRFTISRDNAKNTVYLQMNSRKPEDTAVYYCNAVYSPRYYVGGYDYWGQGTQVTVSS = high polyreactivity
10) QVQLVESGGGLVQAGGSLRLSCAASGNIFVNYAMGWYRQAPGKERELVASINYNGGNTYYADSVKGRFTISRDNAKNTVYLQMNSLKPEDTAVYYCAKDGGGLLRWYTDEYDYWGQGTQVNVSS = low polyreactivity

Sourced from the nanobody polyreactivity screen of Harvey et al. (2022)
